# Tested target: OATP1B3 (Homo sapiens, UniProt Q9NPD5)
# Sequence (Q9NPD5 whole entry): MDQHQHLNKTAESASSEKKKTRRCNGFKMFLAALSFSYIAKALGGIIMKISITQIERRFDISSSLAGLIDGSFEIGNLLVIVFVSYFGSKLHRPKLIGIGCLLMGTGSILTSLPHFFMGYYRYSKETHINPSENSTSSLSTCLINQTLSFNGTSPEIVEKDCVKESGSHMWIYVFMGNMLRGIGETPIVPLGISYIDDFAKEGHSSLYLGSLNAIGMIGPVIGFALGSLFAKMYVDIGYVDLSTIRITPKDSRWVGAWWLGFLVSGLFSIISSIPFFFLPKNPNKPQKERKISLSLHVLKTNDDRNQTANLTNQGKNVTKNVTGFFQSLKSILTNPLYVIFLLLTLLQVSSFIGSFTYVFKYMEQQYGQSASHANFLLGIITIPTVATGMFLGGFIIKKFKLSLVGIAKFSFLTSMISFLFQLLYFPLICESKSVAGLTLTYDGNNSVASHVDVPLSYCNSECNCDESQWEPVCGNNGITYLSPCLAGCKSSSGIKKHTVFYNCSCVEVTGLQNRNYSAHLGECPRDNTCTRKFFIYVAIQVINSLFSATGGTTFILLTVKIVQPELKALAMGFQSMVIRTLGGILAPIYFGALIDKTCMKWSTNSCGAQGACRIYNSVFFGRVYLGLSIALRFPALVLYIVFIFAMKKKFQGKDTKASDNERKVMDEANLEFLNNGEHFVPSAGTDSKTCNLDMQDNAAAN
# Procedure details: in vitro
Observation type: Km (µM)
Just the number please, in µM, no unit attached.

I have this molecule here, CC(=O)O[C@@]12CO[C@@H]1C[C@H](O)[C@@]1(C)C(=O)[C@H](O)C3=C(C)[C@@H](OC(=O)[C@H](O)[C@@H](NC(=O)OC(C)(C)C)c4ccccc4)C[C@@](O)([C@@H](OC(=O)c4ccccc4)[C@H]21)C3(C)C [docetaxel] , and I need its recorded Km.
14
